Cited source: PubChem BioAssay AID708

Exercise: state measured fold change for each of the molecules provided.
Test: A340 optical interference by library compounds – biochemical, MLSMR library, data from PS, PMK, MK assays, artefact control, profiling panel (AID 708);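 further: initial absorbance extrapolated from kinetic A340 decline of NADH oxidation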
Settings: compound absorbance at 340 nm, fold over control; at 10 µM; stronger effect = higher value
In all, about 65,000 compounds went through this assay and fewer than 10 were called active. These entries were drawn from the full list.
Answers are plain numbers.

# count of solved cases: 5
{"given.smiles": "Cc1occc1C(=O)Nc1nnc(-c2ccncc2)s1", "endpoint.result": 1.18}
{"given.smiles": "Cc1ccc(N2CCN(S(=O)(=O)N(C)C)CC2)cc1Cl", "endpoint.result": 1.01}
{"given.smiles": "c1csc(-c2cn3c(n2)SCC3)c1", "endpoint.result": 1.03}
{"given.smiles": "Cn1c2ccccc2c2c(C(=O)N3CCN(c4ccc(F)cc4)CC3)cn(C3CCCC3)c(=O)c21", "endpoint.result": 1.05}
{"given.smiles": "O=C(CCCOc1ccccc1)Nc1cccc(C(=O)O)c1", "endpoint.result": 1.03}

[ask] Endpoint output: fold change of `CC(=O)Nc1cc(C(=O)O)ccc1S(=O)(=O)c1ccc(Cl)cc1` . Value?
[reply] 1.03

###

Provide the reported fold change of each item.
Experiment: A340 optical interference by library compounds – biochemical, MLSMR library, data from PS, PMK, MK assays, artefact control, profiling panel (AID 708);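 further: initial absorbance extrapolated from kinetic A340 decline of NADH oxidation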
Conditions: compound absorbance at 340 nm, fold over control; at 10 µM; stronger effect = higher value
The campaign covered roughly 65,000 compounds. Fewer than 10 were called active. Not all results are given here.

{"compound": "O=C(NCc1ccco1)C1CCCN(S(=O)(=O)c2cccc3nonc23)C1 (stereo unspecified)", "fold change": "1.03 (inactive)"}
{"compound": "O=C(C1CCCO1)N(Cc1ccccc1)c1ccccc1 (stereo unspecified)", "fold change": "1.03 (inactive)"}
{"compound": "CCOC(=O)c1ccccc1NC(=O)CC1Nc2ccccc2NC1=O (stereo unspecified)", "fold change": "1.07 (inactive)"}
{"compound": "CC(=O)c1cc(C#N)c(SCC(=O)C(C)(C)C)nc1C", "fold change": "1.07 (inactive)"}
{"compound": "Cc1cc(C)cc(N(C(C)C(=O)Nc2c(C)n(C)n(-c3ccccc3)c2=O)S(C)(=O)=O)c1 (stereo unspecified)", "fold change": "1.05 (inactive)"}

Respectfully, I request fold change for each entry included below.
1. CCNS(=O)(=O)c1ccc(NC(=O)Nc2cccc(OC)c2)cc1
2. CCOc1ccc(C2C(C(=O)O)c3ccccc3C(=O)N2CCN2CCOCC2)cc1 (stereo unspecified)

[reply]
["1.06 (inactive)", "1.01 (inactive)"]

###

Experiment: A340 optical interference by library compounds – biochemical, MLSMR library, data from PS, PMK, MK assays, artefact control, profiling panel (AID 708);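 further: initial absorbance extrapolated from kinetic A340 decline of NADH oxidation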
Settings: compound absorbance at 340 nm, fold over control; at 10 µM; stronger effect = higher value
Among all 65,000 compounds or so, fewer than 10 were called active. These entries were drawn from the full list.
The label depends only on fold change: label 1 if it is at least 1, label 0 if it is smaller.

{"compound": "CC(C)(O)C#Cc1ccc(C(=O)N2CCC(C(N)=O)(N3CCCCC3)CC2)cc1", "answer.label": "label 1"}

[ask] Decide: fold change of `C=CCn1c(CC(=O)Nc2cccc(OC)c2)nnc1SCC(=O)NC1CCCCC1` >= 1?
[reply] label 1

[ask] Kindly determine if fold change recorded for `CC(C)C(=O)Nc1c(C(=O)c2ccc(F)cc2)oc2ccccc12` is above or exactly 1.
[reply] label 1

[ask] Entry CCOc1ccc(C(CC(=O)O)NC(=O)COc2ccccc2)cc1 (stereo unspecified) : is its fold change no less than 1?
[reply] label 1

[ask] State whether the measured fold change reaches 1, counting equality as reaching it, for CCOc1ccc(OCC)c(NC(=O)C(NS(=O)(=O)c2ccc3c(c2)oc(=O)n3C)C(C)C)c1 (stereo unspecified)
[reply] label 0

###

Assay: A340 optical interference by library compounds – biochemical, MLSMR library, data from PS, PMK, MK assays, artefact control, profiling panel (AID 708);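 further: initial absorbance extrapolated from kinetic A340 decline of NADH oxidation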
Conditions: compound absorbance at 340 nm, fold over control; at 10 µM; stronger effect = higher value
Fewer than 10 of roughly 65,000 compounds were called active. These entries were drawn from the full list.
Output fulfilled for fold change not less than 1; output not fulfilled otherwise.

{"molecule": "CN(C)/C=C1\\C=C(c2ccccc2)OC1=O", "answer.label": "fulfilled"}
{"molecule": "Cc1ccc(S(=O)(=O)NC(C)C(=O)Nc2ccccc2C(=O)N2CCCC2)cc1 (stereo unspecified)", "answer.label": "not fulfilled"}
{"molecule": "CCc1cc(=O)oc2cc(OCC(=O)N3CCCc4ccccc43)ccc12", "answer.label": "fulfilled"}
{"molecule": "CCOC(=O)N1CCN(C(=O)CSc2nnc(-c3c[nH]c4ccccc34)n2CCOC)CC1", "answer.label": "fulfilled"}
{"molecule": "CCNc1nc(SCCOc2ccccc2)nc(N(C)C)n1", "answer.label": "fulfilled"}
{"molecule": "COc1ccc(NC(C)=O)cc1NC(=O)CN1CCN(c2ccccn2)CC1", "answer.label": "not fulfilled"}

[ask] Check if fold change >= 1 (inclusive). Item: `OCCCN1c2ccccc2Nc2nnc(-c3ccccc3)cc21`
[reply] fulfilled

[ask] Dear colleague, could you confirm whether `O=C(Nc1cnn(Cc2ccc(Cl)cc2)c1)C1CCCC1` has fold change at or above 1?
[reply] fulfilled

[ask] API: above_or_equal(metric=fold change, cutoff=1) for item `c1ccc2c(CNn3cnnc3)cccc2c1`
[reply] fulfilled

[ask] Can CC1CCCN(c2ccc(C(=O)NCCc3ccccc3)cn2)C1 (stereo unspecified) be said to have fold change at or above 1?
[reply] fulfilled

[ask] Kindly determine if fold change recorded for CN(C)CCNC(=O)C(C(=O)c1ccccc1)n1ccccc1=O (stereo unspecified) is above or exactly 1.
[reply] fulfilled

[ask] Check this molecule for fold change at or above 1: `CSc1nsc(SC)c1NC(=O)OC1CCCCC1`
[reply] fulfilled

[ask] Evaluate `O=C(CSc1nnc(-c2cccs2)n1Cc1ccco1)c1ccc2c(c1)OCO2` : fold change at minimum 1?
[reply] fulfilled

[ask] Given the entry `CC(C)(C)NC(=O)Cn1nnc(-c2ccccc2Cl)n1` , answer whether its fold change meets or surpasses 1.
[reply] fulfilled

[ask] For this molecule, is measured fold change 1 or higher? `C=CCNc1ncnc2ccc(Br)cc12`
[reply] fulfilled

[ask] Quick check: does CC12COC3(C(=O)Nc4ccc(Cl)cn4)CC1CCC32C (stereo unspecified) have fold change greater than or equal to 1?
[reply] fulfilled

[ask] Say whether COc1ccc(OC)c(C(c2nnnn2C(C)(C)C)N2CCc3ccccc3C2)c1 (stereo unspecified) shows fold change of 1 or more.
[reply] fulfilled

[ask] I'd appreciate it if you could say whether CCCC(=O)C1=C(N(C)c2ccccc2)CC(C)(C)C(C(=O)OC)C1=O (stereo unspecified) has fold change at least equal to 1.
[reply] fulfilled

[ask] Check if fold change >= 1 (inclusive). Item: `CC(=C1C(=O)c2ccccc2C1=O)N1CCN(c2ccccn2)CC1`
[reply] fulfilled

[ask] Please tell me: is the molecule `Cc1ccc(S(=O)(=O)NCc2csc(C)n2)c(C)c1` at or over 1 in terms of fold change?
[reply] not fulfilled

###

Give fold change for every item shown.
Assay: A340 optical interference by library compounds – biochemical, MLSMR library, data from PS, PMK, MK assays, artefact control, profiling panel (AID 708);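 further: initial absorbance extrapolated from kinetic A340 decline of NADH oxidation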
Details: compound absorbance at 340 nm, fold over control; at 10 µM; stronger effect = higher value
Screen size: about 65,000 compounds; fewer than 10 were called active. The list is a sample of the results.
Answers are plain numbers.

Reference set (4 entries):
{"given.smiles": "Cc1ccc2c(c1)c1ncn(CCC3=CCCCC3)c(=O)c1n2C", "fold change": 1}
{"given.smiles": "CC(=O)Nc1cccc(Oc2cc(C#N)c(C#N)cc2N2CCOCC2)c1", "fold change": 1.1}
{"given.smiles": "Cn1nnnc1SCC(=O)N1CCN(Cc2ccccc2)CC1", "fold change": 1.01}
{"given.smiles": "O=C(CS(=O)(=O)Cc1ccccc1)Nc1cccnc1", "fold change": 1.08}

Batch request: fold change per item, same order as input.
1. COc1ccc2c(c1OC)C(=O)N(c1ncn[nH]1)C2
2. O=C(COc1ccccc1Cl)Nn1cnnc1
3. Cn1c(=O)n(C)c2cc(CNc3ccc(N4CCOCC4)c(C(=O)O)c3)ccc21

[reply]
1.04
1.08
1

###

Assay: A340 optical interference by library compounds – biochemical, MLSMR library, data from PS, PMK, MK assays, artefact control, profiling panel (AID 708);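 further: initial absorbance extrapolated from kinetic A340 decline of NADH oxidation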
Conditions: compound absorbance at 340 nm, fold over control; at 10 µM; stronger effect = higher value
In all, about 65,000 compounds went through this assay and fewer than 10 were called active. Only a sample is shown.
Record form. Attribute: fold change. Fill in for each entry.

Solved entries:
{"molecule": "O=c1[nH]nc(CSCc2ccccc2Cl)[nH]1", "fold change": "1.04 (inactive)"}
{"molecule": "CC1(C)CC(=O)c2sc(N)nc2C1", "fold change": "1.11 (inactive)"}
{"molecule": "c1ccc(-c2nnc(SCc3nc4ccccc4[nH]3)o2)cc1", "fold change": "1 (inactive)"}
{"molecule": "CCOC(=O)c1c(N)c(C#N)nn1-c1ccccc1C(=O)OC", "fold change": "1 (inactive)"}
{"molecule": "COc1ccccc1-c1cc(C(=O)NCCCn2ccnc2)no1", "fold change": "0.99 (inactive)"}
{"molecule": "CCOc1cc(C(=O)N2CCc3cc(OC)c(OC)cc3C2)ccc1OC(F)F", "fold change": "0.97 (inactive)"}
{"molecule": "CCOC(=O)CSc1nnc(-c2cccc(Br)c2)o1", "fold change": "1.02 (inactive)"}
{"molecule": "O=c1cccc(-c2ccc(Br)cc2)o1", "fold change": "1.07 (inactive)"}

I have 8 molecules here; please give me fold change for each one.
1. O=C(CCN1C(=O)C2C3C=CC(C3)C2C1=O)Nc1ccccc1F (centres undefined)
2. CC1CCN(Cc2nc3c(c(=O)n(C)c(=O)n3C)n2CCc2ccccc2)CC1
3. COc1cccc(N(CC(=O)NC2CCCC2)C(=O)Cn2nnc(-c3ccc(C)cc3)n2)c1
4. Cc1ccc(C2c3c(oc4ccc(C)cc4c3=O)C(=O)N2CCCN2CCOCC2)cc1 (centres undefined)
5. CCS(=O)(=O)N1CCC(C(=O)N2CCN(c3ccccc3)CC2)CC1
6. COCCNC(=S)c1ccc(OC)cc1
7. O=C(CNCCO)NC12CC3CC(CC(C3)C1)C2
8. CCOc1cccc(-c2nn3c(-c4ccccn4)nnc3s2)c1

[reply]
0.99 (inactive)
0.98 (inactive)
1.01 (inactive)
1.07 (inactive)
1.02 (inactive)
1.01 (inactive)
1.03 (inactive)
1.01 (inactive)
